Below: a set of entries, each annotated with reported Avg. POC.
Target: CDK5/p35 (Homo sapiens (Human))
Sequence (Q00535 whole entry): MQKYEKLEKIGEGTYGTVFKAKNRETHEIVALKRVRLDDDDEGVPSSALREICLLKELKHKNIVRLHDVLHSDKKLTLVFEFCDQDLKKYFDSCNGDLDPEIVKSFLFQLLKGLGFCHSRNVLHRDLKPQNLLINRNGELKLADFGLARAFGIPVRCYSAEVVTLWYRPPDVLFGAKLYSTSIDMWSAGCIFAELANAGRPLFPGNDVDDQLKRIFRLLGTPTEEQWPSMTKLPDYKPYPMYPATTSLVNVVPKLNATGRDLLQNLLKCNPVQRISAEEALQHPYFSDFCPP
Sequence (Q15078 2-307 partner): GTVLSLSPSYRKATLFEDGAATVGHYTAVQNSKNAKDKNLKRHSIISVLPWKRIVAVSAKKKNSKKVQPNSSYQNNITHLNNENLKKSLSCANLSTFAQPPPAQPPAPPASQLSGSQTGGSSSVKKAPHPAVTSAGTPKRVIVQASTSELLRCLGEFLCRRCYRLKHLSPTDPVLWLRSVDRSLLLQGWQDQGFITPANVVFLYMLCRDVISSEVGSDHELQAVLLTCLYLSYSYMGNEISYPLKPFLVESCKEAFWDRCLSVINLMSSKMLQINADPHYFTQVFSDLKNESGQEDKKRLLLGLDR
Test: KinaseProfiler off-target kinase profiling
Format: biochemical
Details: 10 μM, ATP near Km
Description: Representative compounds (Examples 12, 32, 26 and 2) of the invention were tested for off-target kinase activity at a concentration of 10 μM by Millipore, Inc. in their KinaseProfiler™ service against all the kinases available in their full kinase panel. Compounds were run in duplicate at a concentration of ATP near the Km for each individual kinase according to Millipore's specifications. […]
Form entry: value (POC) — number only.

Please review the following examples before continuing.
>>> print(df.to_string())
                                   compound  reported_result
0  Cc1c(-c2cnn(C)c2)nn(-c2ccccc2)c1NC(=O)NC1CCOc2cc(F)ccc21 (stereo not shown)            106.5
1  COCc1ccc2c(c1)C(NC(=O)Nc1c(C)c(-c3cnn(C)c3)nn1-c1ccccc1)COC2 (stereo not shown)              112
2  Cc1c(-c2ccc(=O)n(C)c2)nn(-c2ccccc2)c1NC(=O)NC1CN(CC(F)(F)F)Cc2ccccc21 (stereo not shown)            110.5

// next item, Avg. POC requested
Give me measured Avg. POC, please, for this compound: Cc1c(-c2cnn(C)c2)nn(-c2ccccc2)c1NC(=O)N[C@H]1CCCc2ccccc21
124

* * *

Below: a set of entries, each annotated with reported Avg. POC.
target: AURKA (Homo sapiens (Human)); test: KinaseProfiler off-target kinase profiling; type: biochemical; settings: 10 μM, ATP near Km
Sequence (O14965 whole entry): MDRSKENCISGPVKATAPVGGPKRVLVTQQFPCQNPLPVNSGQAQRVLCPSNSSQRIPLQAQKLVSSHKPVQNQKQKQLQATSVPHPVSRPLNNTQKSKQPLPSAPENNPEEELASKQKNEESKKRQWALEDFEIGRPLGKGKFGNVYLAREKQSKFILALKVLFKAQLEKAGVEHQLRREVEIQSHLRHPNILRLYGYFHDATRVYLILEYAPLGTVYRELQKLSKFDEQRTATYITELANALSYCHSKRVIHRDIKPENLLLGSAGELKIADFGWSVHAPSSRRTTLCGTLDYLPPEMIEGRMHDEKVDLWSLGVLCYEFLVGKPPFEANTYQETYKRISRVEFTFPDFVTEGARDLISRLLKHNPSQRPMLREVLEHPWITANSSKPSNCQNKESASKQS
Form entry: value (POC) — number only.

Please review the following examples before continuing.
>>> print(df.to_string())
                                   compound  test_readout  unit_string  reported_result
0  Cc1c(-c2cnn(C)c2)nn(-c2ccccc2)c1NC(=O)NC1CCOc2cc(F)ccc21 (stereo not shown)      Avg. POC          POC              111
1  Cc1c(-c2cnn(C)c2)nn(-c2ccccc2)c1NC(=O)N[C@H]1CCCc2ccccc21      Avg. POC          POC              126
2  COCc1ccc2c(c1)C(NC(=O)Nc1c(C)c(-c3cnn(C)c3)nn1-c1ccccc1)COC2 (stereo not shown)      Avg. POC          POC            112.5

// next item, Avg. POC requested
Give me measured Avg. POC, please, for this compound: Cc1c(-c2ccc(=O)n(C)c2)nn(-c2ccccc2)c1NC(=O)NC1CN(CC(F)(F)F)Cc2ccccc21 (stereo not shown)
107.5

* * *

target: GSK3beta (Homo sapiens (Human)); assay: KinaseProfiler off-target kinase profiling; assay type: biochemical; conditions: 10 μM, ATP near Km
Sequence (P49841 whole entry): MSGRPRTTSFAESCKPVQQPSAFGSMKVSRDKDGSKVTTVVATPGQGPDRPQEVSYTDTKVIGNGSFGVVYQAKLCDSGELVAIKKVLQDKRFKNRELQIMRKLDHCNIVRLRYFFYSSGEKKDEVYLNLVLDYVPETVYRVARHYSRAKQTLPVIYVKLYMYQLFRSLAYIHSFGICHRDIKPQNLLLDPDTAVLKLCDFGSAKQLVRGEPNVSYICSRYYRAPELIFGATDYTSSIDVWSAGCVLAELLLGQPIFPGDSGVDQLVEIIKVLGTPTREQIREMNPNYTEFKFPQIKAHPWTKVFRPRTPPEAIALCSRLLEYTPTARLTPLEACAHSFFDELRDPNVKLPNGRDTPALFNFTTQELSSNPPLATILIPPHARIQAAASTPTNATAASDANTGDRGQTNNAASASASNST
TEST_READOUT: Avg. POC (POC)
Form entry: value (POC) — number only.

>>> df
                                   compound  reported_result
0  Cc1c(-c2cnn(C)c2)nn(-c2ccccc2)c1NC(=O)NC1CCOc2cc(F)ccc21 (stereo not shown) [Example 12]            109.5
1  Cc1c(-c2ccc(=O)n(C)c2)nn(-c2ccccc2)c1NC(=O)NC1CN(CC(F)(F)F)Cc2ccccc21 (stereo not shown) [Example 26]            124.5
2  COCc1ccc2c(c1)C(NC(=O)Nc1c(C)c(-c3cnn(C)c3)nn1-c1ccccc1)COC2 (stereo not shown) [Example 32]             84.5

Give me measured Avg. POC, please, for this compound: Cc1c(-c2cnn(C)c2)nn(-c2ccccc2)c1NC(=O)N[C@H]1CCCc2ccccc21 [Example 2]
126
